Where do the numbers come from? From paper PMC3698094.

# target_under_test: AC5 (recombinant) (Canis lupus)
# Construct: gene ADCY5; recombinant membranous AC5 expressed by baculovirus in Sf9 cells; crude Sf9 membranes
# Sequence (P30803 whole entry): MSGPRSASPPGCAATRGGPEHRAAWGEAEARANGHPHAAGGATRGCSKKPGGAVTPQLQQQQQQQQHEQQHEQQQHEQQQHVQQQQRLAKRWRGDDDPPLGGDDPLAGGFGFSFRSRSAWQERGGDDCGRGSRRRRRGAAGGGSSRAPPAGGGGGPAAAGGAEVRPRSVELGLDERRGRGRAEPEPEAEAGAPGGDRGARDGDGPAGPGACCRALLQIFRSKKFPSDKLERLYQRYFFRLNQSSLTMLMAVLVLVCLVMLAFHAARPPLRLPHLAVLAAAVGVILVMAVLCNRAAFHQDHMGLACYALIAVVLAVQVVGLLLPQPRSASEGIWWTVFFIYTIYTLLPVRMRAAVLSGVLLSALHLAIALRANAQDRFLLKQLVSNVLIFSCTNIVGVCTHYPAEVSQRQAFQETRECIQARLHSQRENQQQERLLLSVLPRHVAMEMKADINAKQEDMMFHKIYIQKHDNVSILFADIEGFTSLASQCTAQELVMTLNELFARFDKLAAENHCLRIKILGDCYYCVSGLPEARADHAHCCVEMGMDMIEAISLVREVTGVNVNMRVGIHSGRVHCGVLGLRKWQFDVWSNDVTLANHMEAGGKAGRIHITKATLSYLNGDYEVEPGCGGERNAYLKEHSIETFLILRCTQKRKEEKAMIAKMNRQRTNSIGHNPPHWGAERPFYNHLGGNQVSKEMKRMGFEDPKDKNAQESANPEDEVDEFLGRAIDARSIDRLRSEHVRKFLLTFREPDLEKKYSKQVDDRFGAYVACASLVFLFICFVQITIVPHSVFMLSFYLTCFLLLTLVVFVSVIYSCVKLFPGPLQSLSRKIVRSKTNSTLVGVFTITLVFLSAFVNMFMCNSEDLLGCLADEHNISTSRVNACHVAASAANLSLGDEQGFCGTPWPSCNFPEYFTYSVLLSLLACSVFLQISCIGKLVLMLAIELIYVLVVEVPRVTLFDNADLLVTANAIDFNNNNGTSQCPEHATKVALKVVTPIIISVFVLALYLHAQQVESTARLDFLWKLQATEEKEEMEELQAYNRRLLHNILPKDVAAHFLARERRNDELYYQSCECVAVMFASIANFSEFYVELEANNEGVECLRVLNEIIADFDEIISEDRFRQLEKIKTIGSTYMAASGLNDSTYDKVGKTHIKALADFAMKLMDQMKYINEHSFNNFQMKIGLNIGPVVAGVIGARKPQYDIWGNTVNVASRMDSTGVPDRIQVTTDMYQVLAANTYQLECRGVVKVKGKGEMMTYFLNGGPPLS
# assay_method_text: radiochemical AC activity assay, […]cAMP from [α-32P]ATP, Sf9 membranes
# Format: biochemical
# condition_summary: read-out: RecombinantACs / AC5
assay_readout: EC50 (µM)
Hi! Could you send only the number? It should be in µM, unit omitted.

Task: Returns the measured EC50 for the input molecule. Input: "C=C[C@@]1(C)CC(=O)[C@]2(O)[C@@]3(C)[C@@H](O)CCC(C)(C)[C@@H]3[C@H](O)[C@H](OC(C)=O)[C@@]2(C)O1"
Result: 5.8
